Biological target: human P450 11A1 (Homo sapiens, UniProt P05108)
Construct: M A S T R S P R P F N E I P S P G D N; Met-Ala (N-terminal start residues in place of the transit peptide and Ile40) (N); made in house; host or cells: E. coli C41(DE3) with GroES/GroEL, vector pET23C(+)
Sequence (P05108 41-521 limits assumed): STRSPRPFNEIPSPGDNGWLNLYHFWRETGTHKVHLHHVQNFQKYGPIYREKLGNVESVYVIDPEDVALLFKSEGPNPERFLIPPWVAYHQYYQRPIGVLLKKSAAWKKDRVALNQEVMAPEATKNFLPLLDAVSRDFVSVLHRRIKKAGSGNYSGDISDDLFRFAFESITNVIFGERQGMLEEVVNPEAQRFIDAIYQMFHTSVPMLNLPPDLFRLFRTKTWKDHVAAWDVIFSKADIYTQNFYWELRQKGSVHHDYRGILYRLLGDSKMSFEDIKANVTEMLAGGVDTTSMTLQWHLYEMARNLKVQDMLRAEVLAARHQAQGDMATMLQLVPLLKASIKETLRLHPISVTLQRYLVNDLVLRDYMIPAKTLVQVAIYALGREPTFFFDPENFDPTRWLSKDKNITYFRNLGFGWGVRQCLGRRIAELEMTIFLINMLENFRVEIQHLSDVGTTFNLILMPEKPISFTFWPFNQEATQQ
Assay: Steady-state spectral (type I) binding titration, Kd determination
Conditions: 0.10 μM P450 11A1, 10 cm cuvette, with 0.10 μM Adx, quadratic fit; read-out: Kd, (+) Adx
QUANTITY KIND: Kd (nM)
Numbers only, in nM.

The cases that follow already have their Kd on record.
COMPOUND	SYSTEM	Kd (nM)
CC(=O)[C@H]1CC[C@H]2[C@@H]3CC=C4C[C@@H](O)CC[C@]4(C)[C@H]3CC[C@]12C [Pregnenolone]	human P450 11A1 (Homo sapiens, UniProt P05108)	560
CC(C)CC[C@@H](O)[C@](C)(O)[C@H]1CC[C@H]2[C@@H]3CC=C4C[C@@H](O)CC[C@]4(C)[C@H]3CC[C@]12C [20R,22R-(OH)2 Chol, (20R,22R)-Cholest-5-ene-3β,20,22-triol]	human P450 11A1 (Homo sapiens, UniProt P05108)	40
CC(C)CCC[C@@H](C)[C@H]1CC[C@H]2[C@@H]3CC=C4C[C@@H](O)CC[C@]4(C)[C@H]3CC[C@]12C [Cholesterol]	human P450 11A1 (Homo sapiens, UniProt P05108)	110

Request: Please look at CC(C)CC[C@H](O)[C@](C)(O)[C@H]1CC[C@H]2[C@@H]3CC=C4C[C@@H](O)CC[C@]4(C)[C@H]3CC[C@]12C [20R,22S-(OH)2 Chol, (20R,22S)-Cholest-5-ene 3β,20,22-triol] and tell me its recorded Kd on human P450 11A1 (Homo sapiens, UniProt P05108).
Response: 90
